experiment: AUC in rat at 5 mg/kg, po; assay type: ADME, organism-based; conditions: in vivo
Quantity: AUC (ng·h/mL)

I. Cc1nc(NC(=O)[C@@H]2CCCNN2C(=O)[C@H](CC2CCCC2)CN(O)C=O)sc1C
II. CN(C)c1cncc(NC(=O)[C@@H]2CCCNN2C(=O)[C@H](CC2CCCC2)CN(O)C=O)n1
III. CCc1nnc(NC(=O)[C@@H]2CCCNN2C(=O)[C@H](CC2CCCC2)CN(O)C=O)s1
In: From the items above, give an ordering by AUC that starts at the lowest reported number. Ranked list of labels, please, in the requested order.
Out: II, I, III

###

assay: Half life in rat at 3 mg/kg, iv; format: ADME, organism-based; settings: in vivo
Quantity: half-life (h)

Chemical Structure | Unit Text | half-life
CCc1nnc(NC(=O)[C@@H]2CCCNN2C(=O)[C@H](CC2CCCC2)CN(O)C=O)s1 | h | 6.7

I. Cc1nc(NC(=O)[C@@H]2CCCNN2C(=O)[C@H](CC2CCCC2)CN(O)C=O)sc1C
II. CN(C)c1cncc(NC(=O)[C@@H]2CCCNN2C(=O)[C@H](CC2CCCC2)CN(O)C=O)n1
In: Field: entry with larger half-life (options I / II ). API: response body contains the label of the selected item.
Out: II
(II: 7 h, I: 1.1 h)

###

assay: AUC in rat at 3 mg/kg, iv; format: ADME, organism-based; details: in vivo
Quantity: AUC (ng·h/mL)

Chemical Structure | Unit Text | AUC
CCc1nnc(NC(=O)[C@@H]2CCCNN2C(=O)[C@H](CC2CCCC2)CN(O)C=O)s1 | ng·h/mL | 2140

1. Cc1nc(NC(=O)[C@@H]2CCCNN2C(=O)[C@H](CC2CCCC2)CN(O)C=O)sc1C
2. CN(C)c1cncc(NC(=O)[C@@H]2CCCNN2C(=O)[C@H](CC2CCCC2)CN(O)C=O)n1
In: Input pair: 1 , 2 . Output: entry with lower AUC. API: response body contains the label of the selected item.
Out: 2

###

assay: Inhibition of Haemophilus influenzae PDF by fluorescence detection assay
Quantity: IC50 (nM)

Solved cases below.
Chemical Structure | Unit Text | IC50
Cc1ccc(NC(=O)[C@@H]2CCCNN2C(=O)[C@H](CC2CCCC2)CN(O)C=O)nc1 | nM | 25
CN(C)c1cc(NC(=O)[C@@H]2CCCNN2C(=O)[C@H](CC2CCCC2)CN(O)C=O)ncn1 | nM | 13
Cc1cccnc1NC(=O)[C@@H]1CCCNN1C(=O)[C@H](CC1CCCC1)CN(O)C=O | nM | 79

1. CN(C)c1cncc(NC(=O)[C@@H]2CCCNN2C(=O)[C@H](CC2CCCC2)CN(O)C=O)n1
2. Cc1ccnc(NC(=O)[C@@H]2CCCNN2C(=O)[C@H](CC2CCCC2)CN(O)C=O)c1
In: Input pair: 1 , 2 . Output: entry with lower IC50. API: response body contains the label of the selected item.
Out: 1

P. CN(C)c1cccc(NC(=O)[C@@H]2CCCNN2C(=O)[C@H](CC2CCCC2)CN(O)C=O)n1
Q. O=CN(O)C[C@@H](CC1CCCC1)C(=O)N1NCCC[C@H]1C(=O)Nc1cccc2c1COB2O
In: Field: entry with larger IC50 (options P / Q ). API: response body contains the label of the selected item.
Out: Q
(Q: 79 nM, P: 32 nM)
